Where do the numbers come from? From patent US9102637B2.

# EXPERIMENTAL TARGET: human TNIK (N-terminal segment, TNIK_N, residues 1-314) (Homo sapiens (Human), UniProt Q9UKE5)
# Sequence (Q9UKE5 1-314): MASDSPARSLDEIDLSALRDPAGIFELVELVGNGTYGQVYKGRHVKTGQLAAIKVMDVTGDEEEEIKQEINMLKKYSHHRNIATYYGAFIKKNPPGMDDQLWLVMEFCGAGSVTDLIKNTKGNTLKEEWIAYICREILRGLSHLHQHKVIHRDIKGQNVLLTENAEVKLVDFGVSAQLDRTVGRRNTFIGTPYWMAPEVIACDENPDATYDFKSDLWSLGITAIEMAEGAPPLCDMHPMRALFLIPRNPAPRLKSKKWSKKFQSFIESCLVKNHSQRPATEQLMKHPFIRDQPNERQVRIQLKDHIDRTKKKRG
pIC50: −log10 of the molar value.
A collection of molecules and their measured pIC50
READOUT NAME: pIC50

[
  {
    "MOLECULE": "NC(=O)c1nc(Nc2ccc3cc(CO)ccc3c2)sc1NC(=O)c1ccsc1 [Example 70]",
    "READOUT NAME": "pIC50",
    "MEASURED": 8.26
  },
  {
    "MOLECULE": "NC(=O)c1nc(Nc2ccc3cnccc3c2)sc1NC(=O)c1ccsc1 [Example 46]",
    "READOUT NAME": "pIC50",
    "MEASURED": 7.92
  },
  {
    "MOLECULE": "NC(=O)c1nc(Nc2ccc3ccc(F)cc3c2)sc1NC(=O)c1ccsc1 [Example 80]",
    "READOUT NAME": "pIC50",
    "MEASURED": 7.77
  },
  {
    "MOLECULE": "CN1CCN(Cc2ccc(C(=O)Nc3sc(Nc4ccc5ccccc5c4)nc3C(N)=O)cc2)CC1 [Example 17]",
    "READOUT NAME": "pIC50",
    "MEASURED": 8.29
  },
  {
    "MOLECULE": "CN1CCN(Cc2cc(C(=O)Nc3sc(Nc4cccc5ncccc45)nc3C(N)=O)cs2)CC1 [Example 56]",
    "READOUT NAME": "pIC50",
    "MEASURED": 8.09
  }
]

----------
# EXPERIMENTAL TARGET: human TNIK (N-terminal segment, TNIK_N, residues 1-314) (Homo sapiens (Human), UniProt Q9UKE5)
READOUT NAME: log10 of IC50 (log10 of the value in nM)

[
  {
    "COMPOUND": "CN1CCN(c2ccc(C(=O)Nc3sc(N(C)c4ccc5ccccc5c4)nc3C(N)=O)cc2)CC1 [Example 65]",
    "log10 of IC50": 1.56
  },
  {
    "COMPOUND": "NC(=O)c1nc(Nc2ccc3ccccc3c2)sc1NC(=O)c1ccc(Cn2ccnc2)cc1 [Example 208]",
    "log10 of IC50": 0.48
  },
  {
    "COMPOUND": "NC(=O)c1nc(Nc2ccc3ccccc3c2)sc1NC(=O)c1csc(Cn2ccnc2)c1 [Example 258]",
    "log10 of IC50": 0.94
  },
  {
    "COMPOUND": "NC(=O)c1nc(Nc2ccc3ccccc3c2)sc1NC(=O)c1ccc(CN2C(=O)CSC2=O)cc1 [Example 252]",
    "log10 of IC50": 1.20
  },
  {
    "COMPOUND": "NC(=O)c1nc(Nc2ccc3ccccc3c2)sc1NC(=O)C1CC1 [Example 93]",
    "log10 of IC50": 1.18
  },
  {
    "COMPOUND": "NC(=O)c1nc(Nc2ccc3ccccc3c2)sc1NC(=O)c1ccc(Cn2cncn2)cc1 [Example 195]",
    "log10 of IC50": 0.40
  },
  {
    "COMPOUND": "NC(=O)c1nc(Nc2ccc3ccccc3c2)sc1NC(=O)c1ccc(CN2CC[C@H](N)C2)cc1 [Example 220]",
    "log10 of IC50": 0.48
  },
  {
    "COMPOUND": "COc1ccc2cc(Nc3nc(C(N)=O)c(NC(=O)c4ccc(NCCO)cc4)s3)ccc2c1 [Example 113]",
    "log10 of IC50": 1.17
  },
  {
    "COMPOUND": "C#CC(=O)Nc1sc(Nc2ccc3ccccc3c2)nc1C(N)=O [Example 204]",
    "log10 of IC50": 0.78
  },
  {
    "COMPOUND": "CN1CCN(c2ccc(C(=O)Nc3sc(Nc4cccc5ncccc45)nc3C(N)=O)cc2)CC1 [Example 26]",
    "log10 of IC50": 1.19
  },
  {
    "COMPOUND": "CN(C)[C@H]1CCN(Cc2ccc(C(=O)Nc3sc(Nc4ccc5ccccc5c4)nc3C(N)=O)cc2)C1 [Example 221]",
    "log10 of IC50": 0.41
  },
  {
    "COMPOUND": "NC(=O)c1nc(Nc2ccc3ccccc3c2)sc1NC(=O)c1cc2sccc2[nH]1 [Example 35]",
    "log10 of IC50": 1.36
  },
  {
    "COMPOUND": "COc1ccc(C(=O)Nc2sc(Nc3ccc4ncccc4c3)nc2C(N)=O)cc1 [Example 4]",
    "log10 of IC50": 1.33
  },
  {
    "COMPOUND": "NC(=O)c1nc(Nc2ccc3ccccc3c2)sc1NC(=O)c1ccc(Cn2cnnn2)cc1 [Example 205]",
    "log10 of IC50": 0.77
  },
  {
    "COMPOUND": "CN1CCN(C/C=C/C(=O)Nc2sc(Nc3ccc4ccccc4c3)nc2C(N)=O)CC1 [Example 174]",
    "log10 of IC50": 1.20
  },
  {
    "COMPOUND": "COc1ccc2cc(Nc3nc(C(N)=O)c(NC(=O)C=C(C)C)s3)ccc2c1 [Example 137]",
    "log10 of IC50": 1.18
  },
  {
    "COMPOUND": "CN1CCCN(Cc2ccc(C(=O)Nc3sc(Nc4ccc5ccccc5c4)nc3C(N)=O)cc2)CC1 [Example 190]",
    "log10 of IC50": 0.51
  },
  {
    "COMPOUND": "NC(=O)c1nc(Nc2ccc3ncccc3c2)sc1NC(=O)c1ccc(Cn2ccnc2)cc1 [Example 250]",
    "log10 of IC50": 0.48
  },
  {
    "COMPOUND": "NC(=O)c1nc(Nc2ccc3ccccc3c2)sc1NC(=O)c1ccc(CCO)cc1 [Example 116]",
    "log10 of IC50": 0.76
  }
]

----------
The following are reported IC50 results, target or system human TNIK (N-terminal segment, TNIK_N, residues 1-314) (Homo sapiens (Human)).
READOUT NAME: IC50

[
  {
    "COMPOUND": "NC(=O)c1nc(Nc2ccc3ccccc3c2)sc1NC(=O)c1ccc(N2CCC(O)CC2)cc1",
    "READOUT NAME": "IC50",
    "MEASURED": "12.7 nM"
  },
  {
    "COMPOUND": "NCc1ccc(C(=O)Nc2sc(Nc3ccc4ccccc4c3)nc2C(N)=O)cc1",
    "READOUT NAME": "IC50",
    "MEASURED": "5.3 nM"
  },
  {
    "COMPOUND": "Cc1nnnn1Cc1ccc(C(=O)Nc2sc(Nc3ccc4ccccc4c3)nc2C(N)=O)cc1",
    "READOUT NAME": "IC50",
    "MEASURED": "7.1 nM"
  },
  {
    "COMPOUND": "NC(=O)c1nc(Nc2ccc3ccccc3c2)sc1NC(=O)C#CCO",
    "READOUT NAME": "IC50",
    "MEASURED": "4.5 nM"
  },
  {
    "COMPOUND": "NC(=O)c1nc(Nc2ccc3ccccc3c2)sc1NC(=O)CCCCCN1CCOCC1",
    "READOUT NAME": "IC50",
    "MEASURED": "20.2 nM"
  },
  {
    "COMPOUND": "NC(=O)c1nc(Nc2ccc3ccccc3c2)sc1NC(=O)C#CCCO",
    "READOUT NAME": "IC50",
    "MEASURED": "4 nM"
  },
  {
    "COMPOUND": "NC(=O)c1nc(Nc2ccc3ccccc3c2)sc1NC(=O)c1ccc(Cn2cnc([N+](=O)[O-])c2)cc1",
    "READOUT NAME": "IC50",
    "MEASURED": "5.9 nM"
  },
  {
    "COMPOUND": "Cc1ccc(C(=O)Nc2sc(Nc3ccc4ccccc4c3)nc2C(N)=O)cc1N",
    "READOUT NAME": "IC50",
    "MEASURED": "27.2 nM"
  },
  {
    "COMPOUND": "Cc1nccn1Cc1ccc(C(=O)Nc2sc(Nc3ccc4ccccc4c3)nc2C(N)=O)cc1",
    "READOUT NAME": "IC50",
    "MEASURED": "2.3 nM"
  },
  {
    "COMPOUND": "CN1CCN(c2ccc(C(=O)Nc3sc(N(C)c4ccc5ncccc5c4)nc3C(N)=O)cc2)CC1",
    "READOUT NAME": "IC50",
    "MEASURED": "17 nM"
  },
  {
    "COMPOUND": "NC(=O)c1nc(Nc2ccc3ccccc3c2)sc1NC(=O)c1ccc(CN2CC[C@@H](O)C2)cc1",
    "READOUT NAME": "IC50",
    "MEASURED": "5.5 nM"
  },
  {
    "COMPOUND": "NC(=O)c1nc(Nc2ccc3ccccc3c2)sc1NC(=O)c1ccc(CN2CCN(CCO)CC2)cc1",
    "READOUT NAME": "IC50",
    "MEASURED": "2.7 nM"
  },
  {
    "COMPOUND": "NC(=O)c1nc(Nc2cccc3cccnc23)sc1NC(=O)c1ccc(Cn2ccnc2)cc1",
    "READOUT NAME": "IC50",
    "MEASURED": "5.5 nM"
  },
  {
    "COMPOUND": "CN1CCN(c2ccc(C(=O)Nc3sc(Nc4ccc5ccccc5c4)nc3C(N)=O)cc2)CC1",
    "READOUT NAME": "IC50",
    "MEASURED": "10.2 nM"
  },
  {
    "COMPOUND": "COc1ccc2cc(Nc3nc(C(N)=O)c(NC(=O)c4ccc(N)cc4)s3)ccc2c1",
    "READOUT NAME": "IC50",
    "MEASURED": "9.7 nM"
  },
  {
    "COMPOUND": "COc1ccc2cc(Nc3nc(C(N)=O)c(NC(=O)c4ccc(Cn5ccnc5)cc4)s3)ccc2c1",
    "READOUT NAME": "IC50",
    "MEASURED": "6.1 nM"
  },
  {
    "COMPOUND": "NC(=O)c1nc(Nc2ccc3ccccc3c2)sc1NC(=O)c1ccc(NCCN2CCCCC2)cc1",
    "READOUT NAME": "IC50",
    "MEASURED": "8 nM"
  },
  {
    "COMPOUND": "NC(=O)c1nc(Nc2ccc3ccccc3c2)sc1NC(=O)c1ccc(CN2CC[C@H](O)C2)cc1",
    "READOUT NAME": "IC50",
    "MEASURED": "5 nM"
  },
  {
    "COMPOUND": "NC(=O)c1nc(Nc2cccc3ncccc23)sc1NC(=O)c1ccsc1",
    "READOUT NAME": "IC50",
    "MEASURED": "9.4 nM"
  },
  {
    "COMPOUND": "COc1cc(Nc2nc(C(N)=O)c(NC(=O)c3ccsc3)s2)cc2ccccc12",
    "READOUT NAME": "IC50",
    "MEASURED": "51.3 nM"
  },
  {
    "COMPOUND": "CN(c1ccc2ncccc2c1)c1nc(C(N)=O)c(NC(=O)c2csc(CN3CCOCC3)c2)s1",
    "READOUT NAME": "IC50",
    "MEASURED": "5.7 nM"
  },
  {
    "COMPOUND": "CC(C)=CC(=O)Nc1sc(Nc2ccc3ccccc3c2)nc1C(N)=O",
    "READOUT NAME": "IC50",
    "MEASURED": "12.7 nM"
  },
  {
    "COMPOUND": "NC(=O)c1nc(Nc2ccc3ccccc3c2)sc1NC(=O)c1ccc(Cn2cccn2)cc1",
    "READOUT NAME": "IC50",
    "MEASURED": "10.3 nM"
  },
  {
    "COMPOUND": "NC(=O)c1nc(Nc2ccc3ccc(F)cc3c2)sc1NC(=O)CCCCCN1CCOCC1",
    "READOUT NAME": "IC50",
    "MEASURED": "19.5 nM"
  },
  {
    "COMPOUND": "CN1CCN(c2ccc(C(=O)Nc3sc(Nc4cccc5cccnc45)nc3C(N)=O)cc2)CC1",
    "READOUT NAME": "IC50",
    "MEASURED": "19.1 nM"
  },
  {
    "COMPOUND": "NC(=O)c1nc(Nc2ccc3ccccc3c2)sc1NC(=O)c1ccc(Cc2nn[nH]n2)cc1",
    "READOUT NAME": "IC50",
    "MEASURED": "2.9 nM"
  },
  {
    "COMPOUND": "CN(CCO)c1ccc(C(=O)Nc2sc(Nc3ccc4ccccc4c3)nc2C(N)=O)cc1",
    "READOUT NAME": "IC50",
    "MEASURED": "27.4 nM"
  },
  {
    "COMPOUND": "NC(=O)c1nc(Nc2ccc3ccccc3c2)sc1NC(=O)c1ccc(Cn2cnc(CO)c2)cc1",
    "READOUT NAME": "IC50",
    "MEASURED": "3.5 nM"
  },
  {
    "COMPOUND": "NC(=O)c1nc(Nc2ccc3ccccc3c2)sc1NC(=O)c1ccc(Cn2cnc([N+](=O)[O-])n2)cc1",
    "READOUT NAME": "IC50",
    "MEASURED": "14.8 nM"
  },
  {
    "COMPOUND": "NC(=O)c1nc(Nc2ccc3ccccc3c2)sc1NC(=O)c1ccc(CN2CCCCC2CO)cc1 (stereo not drawn)",
    "READOUT NAME": "IC50",
    "MEASURED": "6.8 nM"
  },
  {
    "COMPOUND": "NC(=O)c1nc(Nc2ccc3ccccc3c2)sc1NC(=O)c1ccc[nH]1",
    "READOUT NAME": "IC50",
    "MEASURED": "7.5 nM"
  },
  {
    "COMPOUND": "NC(=O)c1nc(Nc2ccc3ccccc3c2)sc1NC(=O)c1ccc(Cn2ccnc2)s1",
    "READOUT NAME": "IC50",
    "MEASURED": "7.7 nM"
  },
  {
    "COMPOUND": "CN1CCN(c2ccc(C(=O)Nc3sc(Nc4ccc5ncccc5c4)nc3C(N)=O)cc2)CC1",
    "READOUT NAME": "IC50",
    "MEASURED": "4.1 nM"
  }
]
